# Assay Text: Topotecan PK following Compound 1 infusion
# Format: in vivo, human
# Condition Label: human, plasma, intravenous, topotecan […]^2 (Cohort 1) after Compound 1 200 mg/m^2; Day 4; mean; read-out: Cmax averaged
Measured Metric: Cmax (ng/mL)

* CC[C@@]1(O)C(=O)OCc2c1cc1n(c2=O)Cc2cc3c(CN(C)C)c(O)ccc3nc2-1.Cl | 89.3

----------
# Assay Text: Topotecan PK following Compound 1 infusion
# Type: in vivo, human
# Condition Label: human, plasma, intravenous, Topotecan 1.25 mg/m^2 (Cohort 2) with Compound 1 200 mg/m^2, Day 1, Median; read-out: AUC24.5
# Procedure: Blood samples were obtained prior to dosing, at the end of the 30-minute infusion (EOI), and at 0.5, 1, 1.5, 2, 2.5, 4, 6, 8, and 24 hours after the end of infusion. Analysis of plasma concentration versus time data for calculation of standard pharmacokinetic (PK) parameters following intravenous infusion administration was conducted using Phoenix WinNonlin version 6.3 using a nominal infusion duration and scheduled blood sampling times. […]
Measured Metric: AUC (ng·h/mL)

* CC[C@@]1(O)C(=O)OCc2c1cc1n(c2=O)Cc2cc3c(CN(C)C)c(O)ccc3nc2-1.Cl [topotecan] | 159

----------
# Assay Text: Compound 1 PK dosed Days 1-5 with topotecan
# Format: in vivo, human
# Condition Label: human, plasma, intravenous, Cohort 2 (Topotecan 1.25 mg/m^2); Compound 1 200 mg/m^2; Day 1; mean; read-out: Cmax averaged
Measured Metric: Cmax (ng/mL)

• CN1CCN(c2ccc(Nc3ncc4cc5n(c4n3)C3(CCCCC3)CNC5=O)nc2)CC1 = 904

----------
# Assay Text: 14-day oral gavage toxicokinetic study in rats
# Type: in vivo
# Condition Label: both sexes, rat, plasma, po, 30 mg/kg, oral 30 mg/kg, Study Day 14, Overall
Measured Metric: AUC(0-inf) (ng·h/mL)

* CN1CCN(c2ccc(Nc3ncc4cc5n(c4n3)C3(CCCCC3)CNC5=O)nc2)CC1 | 37000

----------
# Assay Text: 14-day oral gavage toxicokinetic study in rats
# Assay type: in vivo
# Condition Label: female, rat, plasma, po, 30 mg/kg, oral 30 mg/kg, Study Day 14, Female
Measured Metric: AUC(0-t) (ng·h/mL)

- CN1CCN(c2ccc(Nc3ncc4cc5n(c4n3)C3(CCCCC3)CNC5=O)nc2)CC1 [Compound 1]: 40600

----------
# Assay Text: 14-day oral gavage toxicokinetic study in rats
# Assay type: in vivo
# Condition Label: both sexes, rat, plasma, po, 2 mg/kg, Mean Compound 1 Plasma Concentration, rats, oral 2 mg/kg, Day 14, 4 h, Overall
# Method: Plasma was obtained from blood samples collected from rats in a composite sampling scheme, with 3 samples collected per sex, per dose, at each target collection time, as illustrated in Table 21 to Table 25. […] The following parameters were determined: […] A value of 0 ng/mL was assigned to all values below the lower limit of quantitation (BLQ, <10.0 ng/mL). […] CL: Clearance (L/h/kg), calculated as the dose divided by AUC(0-t). […] Cmax/Dose: Normalized Cmax, calculated as Cmax divided by total dose. […]
Measured Metric: concentration at 4 h

* CN1CCN(c2ccc(Nc3ncc4cc5n(c4n3)C3(CCCCC3)CNC5=O)nc2)CC1 [Compound 1] | 0.119 µg/mL

----------
# Assay Text: 14-day oral gavage toxicokinetic study in rats
# Format: in vivo
# Condition Label: male, rat, plasma, po, 5 mg/kg, Individual Compound 1 Plasma Concentration, rats, daily oral 5 mg/kg, Day 1, Male, 0.5 h
# Description: Plasma was obtained from blood samples collected from rats in a composite sampling scheme, with 3 samples collected per sex, per dose, at each target collection time, as illustrated in Table 21 to Table 25. […] The following parameters were determined: […] A value of 0 ng/mL was assigned to all values below the lower limit of quantitation (BLQ, <10.0 ng/mL). […] CL: Clearance (L/h/kg), calculated as the dose divided by AUC(0-t). […] Cmax/Dose: Normalized Cmax, calculated as Cmax divided by total dose. […]
Measured Metric: concentration at 0.5 h (ng/mL)

- CN1CCN(c2ccc(Nc3ncc4cc5n(c4n3)C3(CCCCC3)CNC5=O)nc2)CC1: 225

----------
# Assay Text: 14-day oral gavage toxicokinetic study in rats
# Type: in vivo
# Condition Label: male, rat, plasma, po, 15 mg/kg, Mean Compound 1 Plasma Concentration, rats, oral 15 mg/kg, Day 1, 2 h, Male
Measured Metric: concentration at 2 h (ng/mL)

• CN1CCN(c2ccc(Nc3ncc4cc5n(c4n3)C3(CCCCC3)CNC5=O)nc2)CC1 [Compound 1] = 1060

----------
# Assay Text: 14-day oral gavage toxicokinetic study in rats
# Type: in vivo
# Condition Label: male, rat, plasma, po, 5 mg/kg, Individual Compound 1 Plasma Concentration, rats, daily oral 5 mg/kg, Day 14, Male, 4 h
Measured Metric: concentration at 4 h (ng/mL)

• CN1CCN(c2ccc(Nc3ncc4cc5n(c4n3)C3(CCCCC3)CNC5=O)nc2)CC1 [Compound 1] = 512

----------
# Assay Text: 14-day oral gavage toxicokinetic study in rats
# Type: in vivo
# Condition Label: both sexes, rat, plasma, po, 2 mg/kg, oral 2 mg/kg, Study Day 14, Overall
# Experimental: Plasma was obtained from blood samples collected from rats in a composite sampling scheme, with 3 samples collected per sex, per dose, at each target collection time, as illustrated in Table 21 to Table 25. […] The following parameters were determined: […] A value of 0 ng/mL was assigned to all values below the lower limit of quantitation (BLQ, <10.0 ng/mL). […] CL: Clearance (L/h/kg), calculated as the dose divided by AUC(0-t). […] Cmax/Dose: Normalized Cmax, calculated as Cmax divided by total dose. […]
Measured Metric: AUC(0-inf) (ng·h/mL)

- CN1CCN(c2ccc(Nc3ncc4cc5n(c4n3)C3(CCCCC3)CNC5=O)nc2)CC1 [Compound 1]: 1550

----------
# Assay Text: Single escalating dose IV infusion pharmacokinetics in healthy volunteers (noncompartmental)
# Type: in vivo, human
# Condition Label: both sexes, human, plasma, iv, 24 mg/m2, Cohort 3, 24 mg/m^2 IV; r6-8=Subjects 1-3,r10=Mean,r12=Min,r13=Median,r14=Max,r16=Geometric Mean
Measured Metric: AUC(0-t)

- CN1CCN(c2ccc(Nc3ncc4cc5n(c4n3)C3(CCCCC3)CNC5=O)nc2)CC1: 0.261 µg·h/mL

----------
# Assay Text: Topotecan PK following Compound 1 infusion
# Assay type: in vivo, human
# Condition Label: human, plasma, intravenous, Topotecan […]^2 (Cohort 1) with Compound 1 200 mg/m^2, Day 1, Median; read-out: Cmax
Measured Metric: Cmax

• CC[C@@]1(O)C(=O)OCc2c1cc1n(c2=O)Cc2cc3c(CN(C)C)c(O)ccc3nc2-1.Cl = 69.5 ng/mL

----------
# Assay Text: 14-day oral gavage toxicokinetic study in rats
# Format: in vivo
# Condition Label: male, rat, plasma, po, 5 mg/kg, Mean Compound 1 Plasma Concentration, rats, oral 5 mg/kg, Day 14, 0.5 h, Male
Measured Metric: concentration at 0.5 h (ng/mL)

* CN1CCN(c2ccc(Nc3ncc4cc5n(c4n3)C3(CCCCC3)CNC5=O)nc2)CC1 | 298

----------
# Assay Text: 14-day oral gavage toxicokinetic study in rats
# Assay type: in vivo
# Condition Label: both sexes, rat, plasma, po, 15 mg/kg, Mean Compound 1 Plasma Concentration, rats, oral 15 mg/kg, Day 1, 8 h, Overall
Measured Metric: concentration at 8 h (ng/mL)

• CN1CCN(c2ccc(Nc3ncc4cc5n(c4n3)C3(CCCCC3)CNC5=O)nc2)CC1 = 1230

----------
# Assay Text: 14-day oral gavage toxicokinetic study in rats
# Type: in vivo
# Condition Label: both sexes, rat, plasma, po, 2 mg/kg, oral 2 mg/kg, Study Day 1, Overall
# Protocol: Plasma was obtained from blood samples collected from rats in a composite sampling scheme, with 3 samples collected per sex, per dose, at each target collection time, as illustrated in Table 21 to Table 25. […] The following parameters were determined: […] A value of 0 ng/mL was assigned to all values below the lower limit of quantitation (BLQ, <10.0 ng/mL). […] CL: Clearance (L/h/kg), calculated as the dose divided by AUC(0-t). […] Cmax/Dose: Normalized Cmax, calculated as Cmax divided by total dose. […]
Measured Metric: AUC(0-inf) (ng·h/mL)

• CN1CCN(c2ccc(Nc3ncc4cc5n(c4n3)C3(CCCCC3)CNC5=O)nc2)CC1 [Compound 1] = 1770

----------
# Assay Text: 14-day oral gavage toxicokinetic study in rats
# Format: in vivo
# Condition Label: female, rat, plasma, po, 15 mg/kg, Mean Compound 1 Plasma Concentration, rats, oral 15 mg/kg, Day 14, 24 h, Female
Measured Metric: concentration at 24 h

• CN1CCN(c2ccc(Nc3ncc4cc5n(c4n3)C3(CCCCC3)CNC5=O)nc2)CC1 = 130 ng/mL
